Source listed as patent US9481673B2.

Target: P450 3A4 (Homo sapiens (Human))
Sequence (P08684 whole entry): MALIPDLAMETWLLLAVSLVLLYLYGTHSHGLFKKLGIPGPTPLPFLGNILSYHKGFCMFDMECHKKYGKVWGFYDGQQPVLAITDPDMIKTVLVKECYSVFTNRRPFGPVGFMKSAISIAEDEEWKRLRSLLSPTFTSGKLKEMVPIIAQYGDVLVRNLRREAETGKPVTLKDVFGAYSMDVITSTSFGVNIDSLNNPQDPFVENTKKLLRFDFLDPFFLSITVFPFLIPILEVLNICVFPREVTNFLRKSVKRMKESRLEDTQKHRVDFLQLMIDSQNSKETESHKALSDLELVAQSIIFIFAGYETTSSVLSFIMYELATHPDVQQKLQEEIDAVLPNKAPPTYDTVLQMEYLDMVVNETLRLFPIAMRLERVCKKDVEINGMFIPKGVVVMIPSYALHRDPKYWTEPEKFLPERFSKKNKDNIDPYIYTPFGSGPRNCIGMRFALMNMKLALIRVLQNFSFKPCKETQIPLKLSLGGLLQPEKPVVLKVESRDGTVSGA
Assay: Cytochrome P450 isoenzyme inhibition assay, hydroxylation of Midazolam
Format: in vitro ADME
Details: (S)-isomers; human liver microsomes, 37° C.
pIC50: −log10 of the molar value.
Listed molecules paired with reported pIC50

Please review the entries below; each comes with its answer.
molecule: CN[C@@H](C)C(=O)Nc1ccc(-c2c(-c3cnc(C)nc3)nc3cc(C)ccn23)c(C#Cc2ccc3c(C)nccc3c2)n1 [(S)-7]
pIC50: < 4.30
--
molecule: CN[C@@H](C)C(=O)Nc1ccc(-c2c(-c3cccnc3C)nc3cc(C)ccn23)c(C#Cc2ccc3c(C)nccc3c2)n1 [(S)-5]
pIC50: < 4.30
--
molecule: CN[C@@H](C)C(=O)Nc1ccc(-c2c(-c3ccc(OC)nc3)nc3cc(C)ccn23)c(C#Cc2ccc3c(C)nccc3c2)n1 [(S)-9]
pIC50: < 4.30

In the following, a different molecule is considered.
Exercise: Fill in the blank: the reported pIC50 of CN[C@@H](C)C(=O)Nc1ccc(-c2c(-c3ccnc(C)c3)nc3cc(C)ccn23)c(C#Cc2ccccc2)n1 [(S)-11] is ____.
Key: 4.34
